Reported TGI by item:
System: OVCAR-3 ovarian
protocol.details: NCI tumour cell line growth inhibition, 48 h
observable: TGI (µM)

[[record]]
compound = "CCCCCCc1cc2c(C)c(C)c(=O)oc2cc1OCCCOc1cc2oc(=O)c(C)c(C)c2cc1CCCCCC"
observable = "TGI"
unit_string = "µM"
lt_gt_eq = ">"
result_number = 100

[[record]]
compound = "OCCCCC#Cc1ccccc1C#Cc1ccccn1"
observable = "TGI"
unit_string = "µM"
lt_gt_eq = "="
result_number = 77.3

[[record]]
compound = "S=C(S)NCCNC(=S)S.[Cu+2]"
observable = "TGI"
unit_string = "µM"
lt_gt_eq = ">"
result_number = 100

[[record]]
compound = "CCOc1ccc([Se][Se]c2ccc(OCC)cc2)cc1"
observable = "TGI"
unit_string = "µM"
lt_gt_eq = ">"
result_number = 100

[[record]]
compound = "C=CC(=O)C#CC#CC/C=C\\CCCCCCC"
observable = "TGI"
unit_string = "µM"
lt_gt_eq = ">"
result_number = 20.6

[[record]]
compound = "CC1CC[C@@]23CCC4(C)[C@@](C=CC5[C@@]6(C)CCC(=O)C(C)(C)C6CC[C@]54C)(OC2=O)[C@@H]3[C@H]1C (stereo not given in full)"
observable = "TGI"
unit_string = "µM"
lt_gt_eq = "="
result_number = 39.3

[[record]]
compound = "CCCCCCCCCCC(=O)CC(=O)c1c(O)cccc1O"
observable = "TGI"
unit_string = "µM"
lt_gt_eq = "="
result_number = 63.7

[[record]]
compound = "C=C1CC(C)(COc2ccc3c(C)c(C)c(=O)oc3c2C)OC1=O (stereo not given)"
observable = "TGI"
unit_string = "µM"
lt_gt_eq = "="
result_number = 14.2

[[record]]
compound = "O=C1C=CC(=O)C(CNc2ccc(C(=O)OC34CC5CC(CC(C5)C3)C4)cc2)=C1Br"
observable = "TGI"
unit_string = "µM"
lt_gt_eq = "="
result_number = 39.4

[[record]]
compound = "COc1ccc2c(c1)/C(=N/OC(C)=O)c1c-2c(Nc2cccc(/C(C)=N/OC(C)=O)c2)nc2ccccc12"
observable = "TGI"
unit_string = "µM"
lt_gt_eq = ">"
result_number = 100

